Provenance of the data: patent US20230056252A1

# target-under-test: T1, CD3 expressed on cell-surface of primary human T cells (human, UniProt P07766 23-207; P04234 22-171)
# T1 construct: also called cell-surface CD3; human CD3
# T1 sequence (P07766 23-207 limits assumed, chain 1 of 2): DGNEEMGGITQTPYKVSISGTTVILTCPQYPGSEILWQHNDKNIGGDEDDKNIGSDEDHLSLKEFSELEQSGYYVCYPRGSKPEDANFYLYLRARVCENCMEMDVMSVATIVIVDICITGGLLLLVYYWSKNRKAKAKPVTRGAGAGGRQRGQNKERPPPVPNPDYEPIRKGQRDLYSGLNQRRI
# T1 sequence (P04234 22-171 limits assumed, chain 2 of 2): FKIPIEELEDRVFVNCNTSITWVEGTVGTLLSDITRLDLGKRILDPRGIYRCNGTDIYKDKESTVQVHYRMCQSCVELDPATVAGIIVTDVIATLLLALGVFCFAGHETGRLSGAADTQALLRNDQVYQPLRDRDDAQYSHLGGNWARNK
# protocol-summary: flow cytometry competition vs murine SP34-AF488 on human T cells, n = 1
quantity-name: IC50 (µg/mL)

>>> readout_number("huSP34.13.8 Fab-HF (Fab, V domains shown) VH: EVQLVESGGGLVQPGGSLRLSCAASGFTFSTYAMNWVRQAPGKGLEWVGRIRSKYNNYATYYAASVKGRFTISRDDSKNTLYLQMNSLRTEDTAVYYCVRHGNFGHSYVSWFAYWGQGTLVTVSS VL: QAVVTQEPSLTVSPGGTVTLTCGSSTGAVTTGHYANWVQQKPGQAPRGLIGGTNKRAPGVPARFSGSLLGGKAALTISGAQPEDEAEYYCALWYSNRWVFGGGTKLTVL")
0.36
>>> readout_number("huSP34.13.9 Fab-HF (Fab, V domains shown) VH: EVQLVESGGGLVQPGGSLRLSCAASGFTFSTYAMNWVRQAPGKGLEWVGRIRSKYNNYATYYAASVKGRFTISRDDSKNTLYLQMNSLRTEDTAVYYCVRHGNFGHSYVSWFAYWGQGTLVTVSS VL: QAVVTQPPSLTVSPGGTVTLTCGSSTGAVTTGHYANWVQQKPGQAPRGLIGGTNKRAPGVPARFSGSLSGGKAALTISGAQPEDEAEYYCALWYSNLWVFGGGTKLTVL")
0.48
>>> readout_number("huSP34.13.10 Fab-HF (Fab, V domains shown) VH: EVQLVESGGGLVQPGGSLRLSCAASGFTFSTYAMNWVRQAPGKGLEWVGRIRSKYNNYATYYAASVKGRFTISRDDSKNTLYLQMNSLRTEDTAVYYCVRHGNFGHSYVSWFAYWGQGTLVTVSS VL: QAVVTQPPSLTVSPGGTVTLTCGSSTGAVTTGHYANWVQQKPGQAPRGLIGGTNKRAPGVPARFSGSLSGGKAALTISGAQPEDEAEYYCALWYSNRWVFGGGTKLTVL")
0.35
>>> readout_number("huSP34.3.9 Fab-HF (Fab, V domains shown) VH: EVQLVESGGGLVQPGGSLRLSCAASGFTFNTYAMNWVRQAPGKGLEWVGRIRSKYNNYATYYADSVKGRFTISRDDSKNSLYLQMNSLRTEDTAVYYCVRHGNFGHSYVSWFAYWGQGTLVTVSS VL: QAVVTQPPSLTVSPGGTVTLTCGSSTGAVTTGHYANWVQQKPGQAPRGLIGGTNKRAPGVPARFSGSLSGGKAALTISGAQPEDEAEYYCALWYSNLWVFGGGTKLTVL")
0.39
>>> readout_number("huSP34.12.7 Fab-HF (Fab, V domains shown) VH: EVQLVESGGGLVQPGGSLRLSCAASGFTFSTYAMNWVRQAPGKGLEWVARIRSKYNNYATYYAASVKGRFTISRDDSKNSLYLQMNSLRTEDTAVYYCVRHGNFGHSYVSWFAYWGQGTLVTVSS VL: QAVVTQEPSLTVSPGGTVTLTCRSSTGAVTTGHYANWVQQKPGQAPRGLIGGTNKRAPGVPARFSGSLLGGKAALTISGAQPEDEAEYYCALWYSNLWVFGGGTKLTVL")
0.77
>>> readout_number("huSP34.11.9 Fab-HF (Fab, V domains shown) VH: EVQLVESGGGLVQPGGSLRLSCAASGFTFSTYAMNWVRQAPGKGLEWVGRIRSKYNNYATYYAASVKGRFTISRDDSKNSLYLQMNSLRTEDTAVYYCVRHGNFGHSYVSWFAYWGQGTLVTVSS VL: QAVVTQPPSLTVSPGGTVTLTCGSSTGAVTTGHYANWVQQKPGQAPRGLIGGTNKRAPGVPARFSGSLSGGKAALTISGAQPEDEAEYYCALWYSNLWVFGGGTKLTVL")
0.57
>>> readout_number("huSP34.11.10 Fab-HF (Fab, V domains shown) VH: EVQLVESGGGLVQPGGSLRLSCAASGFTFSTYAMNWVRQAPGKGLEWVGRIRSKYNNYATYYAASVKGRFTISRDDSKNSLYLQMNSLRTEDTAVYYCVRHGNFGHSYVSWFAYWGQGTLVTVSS VL: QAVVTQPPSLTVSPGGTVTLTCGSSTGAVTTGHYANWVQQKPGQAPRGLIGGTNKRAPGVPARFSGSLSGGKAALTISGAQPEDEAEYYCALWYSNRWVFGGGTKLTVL")
0.35
>>> readout_number("huSP34.11.7 Fab-HF (Fab, V domains shown) VH: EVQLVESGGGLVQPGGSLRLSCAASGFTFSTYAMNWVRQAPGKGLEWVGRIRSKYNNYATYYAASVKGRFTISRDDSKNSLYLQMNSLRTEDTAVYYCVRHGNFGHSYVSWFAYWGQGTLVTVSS VL: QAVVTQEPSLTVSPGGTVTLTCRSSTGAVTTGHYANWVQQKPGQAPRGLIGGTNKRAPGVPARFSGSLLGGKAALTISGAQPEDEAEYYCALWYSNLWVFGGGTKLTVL")
0.45
>>> readout_number("huSP34.11.8 Fab-HF (Fab, V domains shown) VH: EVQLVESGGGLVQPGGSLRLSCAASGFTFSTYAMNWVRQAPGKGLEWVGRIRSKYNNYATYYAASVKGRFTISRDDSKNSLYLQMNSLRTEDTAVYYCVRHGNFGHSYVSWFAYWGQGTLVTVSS VL: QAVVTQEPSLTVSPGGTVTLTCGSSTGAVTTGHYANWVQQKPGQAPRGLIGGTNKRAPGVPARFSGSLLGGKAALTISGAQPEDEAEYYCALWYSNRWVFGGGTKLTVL")
0.3
>>> readout_number("huSP34.3.7 Fab-HF (Fab, V domains shown) VH: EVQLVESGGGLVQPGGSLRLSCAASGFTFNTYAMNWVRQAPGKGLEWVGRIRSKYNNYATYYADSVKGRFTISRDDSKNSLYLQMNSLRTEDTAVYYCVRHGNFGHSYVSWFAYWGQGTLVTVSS VL: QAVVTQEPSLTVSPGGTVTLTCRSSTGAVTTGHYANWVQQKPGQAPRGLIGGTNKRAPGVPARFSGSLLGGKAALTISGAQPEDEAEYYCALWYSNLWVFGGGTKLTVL")
0.3
